Where do these numbers come from? They come from patent US20250382372A1.

# System: Cynomolgus monkey CD1a expressed on HEK-293 cells (Cynomolgus monkey)
# Test method notes: flow, HEK-293, Ab 10 µg/ml
Listing of recorded Fluorescence Intensity Geomean (normalized to background) (fold over background) by entry.

# Binder, Result value
rows = [
    ("111 (VR12113) (antibody, V domains shown, also called OX111) VH: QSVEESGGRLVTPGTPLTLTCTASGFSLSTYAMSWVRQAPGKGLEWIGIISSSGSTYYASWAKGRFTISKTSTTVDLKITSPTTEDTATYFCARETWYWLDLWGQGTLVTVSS VL: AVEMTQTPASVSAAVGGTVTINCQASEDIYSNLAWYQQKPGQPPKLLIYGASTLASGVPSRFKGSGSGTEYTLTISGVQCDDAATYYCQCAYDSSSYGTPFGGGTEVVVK", 16.3),
    ("77A (VR11851) (antibody, V domains shown, V regions were 'cloned as either rabbit or mouse full length antibodies'; also called OX77a; antibody 77a) VH: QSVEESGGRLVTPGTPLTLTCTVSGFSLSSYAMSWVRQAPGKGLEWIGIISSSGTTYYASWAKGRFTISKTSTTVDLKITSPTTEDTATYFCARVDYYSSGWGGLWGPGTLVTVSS VL: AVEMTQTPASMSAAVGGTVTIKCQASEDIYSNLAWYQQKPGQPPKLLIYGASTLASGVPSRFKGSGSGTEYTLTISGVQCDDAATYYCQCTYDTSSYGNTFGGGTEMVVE", 1.4),
]

Kindly consider the entry below.
Form field Fluorescence Intensity Geomean (normalized to background) (fold over background), entry 110 (VR12112) (antibody, V domains shown, V regions were 'cloned as either rabbit or mouse full length antibodies'; also called OX110; antibody 110) VH: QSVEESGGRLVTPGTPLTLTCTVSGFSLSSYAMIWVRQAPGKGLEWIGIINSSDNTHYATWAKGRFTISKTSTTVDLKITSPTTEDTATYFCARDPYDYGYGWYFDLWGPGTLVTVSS VL: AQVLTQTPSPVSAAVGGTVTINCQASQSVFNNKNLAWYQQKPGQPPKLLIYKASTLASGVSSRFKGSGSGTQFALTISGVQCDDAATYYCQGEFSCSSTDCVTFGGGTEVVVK : 13.6
